method.notes: Volume of distribution in Sprague-Dawley rat at 1 mg/kg, iv administered as single dose measured for 24 hrs by LC-MS/MS analysis
Type: ADME, organism-based
measurement.parameters: in vivo
test.readout: Vd (L/kg)
Reply numerically in L/kg, unit not repeated.

Request the reported Vd associated with CCc1cc2c(cc1N1CCN(C(=O)CNc3cccc4c3C(=O)N(C3CCC(=O)NC3=O)C4=O)CC1)C(C)(C)c1[nH]c3cc(C#N)ccc3c1C2=O (stereo unspecified)
3.89

---

target.or.test.system: Protein cereblon/ALK tyrosine kinase receptor/Nucleophosmin (Homo sapiens) (UniProt Q9UM73+P06748+Q96SW2)
Sequence (P06748 whole entry partner, the tested form may be a part): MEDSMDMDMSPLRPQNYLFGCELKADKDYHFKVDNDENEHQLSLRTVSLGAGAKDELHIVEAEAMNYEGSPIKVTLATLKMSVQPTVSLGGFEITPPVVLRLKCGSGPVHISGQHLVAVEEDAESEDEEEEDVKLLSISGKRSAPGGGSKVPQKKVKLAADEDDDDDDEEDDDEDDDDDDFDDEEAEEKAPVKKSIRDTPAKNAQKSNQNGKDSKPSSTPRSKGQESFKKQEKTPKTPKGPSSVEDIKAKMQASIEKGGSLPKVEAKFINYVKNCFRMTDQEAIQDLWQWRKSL
Sequence (Q96SW2 whole entry partner, the tested form may be a part): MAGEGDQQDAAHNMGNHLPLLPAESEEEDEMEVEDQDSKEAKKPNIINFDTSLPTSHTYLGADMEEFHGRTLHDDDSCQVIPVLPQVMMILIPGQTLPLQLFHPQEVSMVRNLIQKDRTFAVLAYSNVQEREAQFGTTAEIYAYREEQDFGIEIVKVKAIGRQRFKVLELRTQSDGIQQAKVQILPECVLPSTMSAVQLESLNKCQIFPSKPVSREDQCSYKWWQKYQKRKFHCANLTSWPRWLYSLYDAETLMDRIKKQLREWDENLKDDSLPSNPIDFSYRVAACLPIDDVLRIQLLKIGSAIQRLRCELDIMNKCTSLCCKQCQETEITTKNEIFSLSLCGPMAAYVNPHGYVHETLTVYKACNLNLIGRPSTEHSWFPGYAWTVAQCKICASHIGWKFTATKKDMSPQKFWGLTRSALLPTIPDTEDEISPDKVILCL
Sequence (Q9UM73 19-1620 limits assumed): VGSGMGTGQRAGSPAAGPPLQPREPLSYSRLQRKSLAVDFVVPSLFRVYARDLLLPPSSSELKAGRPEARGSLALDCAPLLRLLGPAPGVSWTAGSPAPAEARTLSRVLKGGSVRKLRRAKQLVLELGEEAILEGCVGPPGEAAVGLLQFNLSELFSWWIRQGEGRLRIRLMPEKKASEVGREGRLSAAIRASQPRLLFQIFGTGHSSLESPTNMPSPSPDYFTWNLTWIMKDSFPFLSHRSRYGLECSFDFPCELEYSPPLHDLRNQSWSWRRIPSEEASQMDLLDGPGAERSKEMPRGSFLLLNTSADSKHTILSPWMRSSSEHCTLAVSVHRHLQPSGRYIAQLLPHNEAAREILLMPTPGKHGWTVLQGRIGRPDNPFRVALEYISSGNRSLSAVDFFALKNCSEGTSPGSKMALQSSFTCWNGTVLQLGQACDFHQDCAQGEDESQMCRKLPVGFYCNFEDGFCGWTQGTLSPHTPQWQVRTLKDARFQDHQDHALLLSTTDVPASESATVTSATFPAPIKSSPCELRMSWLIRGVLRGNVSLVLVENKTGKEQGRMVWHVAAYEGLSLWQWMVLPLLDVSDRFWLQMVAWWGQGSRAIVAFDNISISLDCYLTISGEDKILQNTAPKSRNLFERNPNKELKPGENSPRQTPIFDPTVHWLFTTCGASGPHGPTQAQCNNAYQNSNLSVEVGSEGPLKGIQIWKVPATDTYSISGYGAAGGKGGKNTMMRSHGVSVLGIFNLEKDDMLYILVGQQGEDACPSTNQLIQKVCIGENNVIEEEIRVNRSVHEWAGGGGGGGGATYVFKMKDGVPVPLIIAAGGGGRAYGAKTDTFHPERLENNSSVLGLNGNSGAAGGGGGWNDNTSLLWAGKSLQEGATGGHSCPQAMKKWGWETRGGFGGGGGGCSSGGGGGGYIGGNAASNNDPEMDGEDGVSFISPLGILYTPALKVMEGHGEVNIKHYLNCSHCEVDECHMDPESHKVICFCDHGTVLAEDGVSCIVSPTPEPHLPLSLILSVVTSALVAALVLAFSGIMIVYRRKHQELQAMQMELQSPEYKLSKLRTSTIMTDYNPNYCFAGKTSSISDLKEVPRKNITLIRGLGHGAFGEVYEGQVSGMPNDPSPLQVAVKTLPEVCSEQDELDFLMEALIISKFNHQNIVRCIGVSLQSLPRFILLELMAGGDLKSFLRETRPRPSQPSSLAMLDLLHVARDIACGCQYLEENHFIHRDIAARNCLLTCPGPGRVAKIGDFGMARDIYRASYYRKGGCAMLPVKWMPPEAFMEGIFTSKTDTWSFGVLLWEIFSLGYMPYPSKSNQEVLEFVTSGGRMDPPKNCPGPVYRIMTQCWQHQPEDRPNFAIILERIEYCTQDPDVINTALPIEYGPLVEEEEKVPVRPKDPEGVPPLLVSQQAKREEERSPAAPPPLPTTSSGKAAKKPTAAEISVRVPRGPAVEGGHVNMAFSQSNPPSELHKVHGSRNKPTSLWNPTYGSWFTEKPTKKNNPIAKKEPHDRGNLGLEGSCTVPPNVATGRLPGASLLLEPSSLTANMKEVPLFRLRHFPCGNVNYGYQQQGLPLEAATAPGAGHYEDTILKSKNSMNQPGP
method.notes: Protac activity at CRBN/NPM-ALK in human KARPAS-299 cells assessed as induction of NPM-ALK fusion protein degradation at 1 uM incubated for 24 hrs by Western blot analysis relative to control
Assay type: cell-based
The entries below are paired with their reported Activity.
Reply numerically in %, unit not repeated.

Check out these entries, answers already filled in.
| compound | units | Activity |
| --- | --- | --- |
| CCc1cc2c(cc1N1CCN(CC(=O)NCCCCNc3cccc4c3C(=O)N(C3CCC(=O)NC3=O)C4=O)CC1)C(C)(C)c1[nH]c3cc(C#N)ccc3c1C2=O (stereo not drawn) | % | 76 |
| CCc1cc2c(cc1N1CCN(CC(=O)NCCNc3cccc4c3C(=O)N(C3CCC(=O)NC3=O)C4=O)CC1)C(C)(C)c1[nH]c3cc(C#N)ccc3c1C2=O (stereo not drawn) | % | 57.8 |
| CCc1cc2c(cc1N1CCN(c3cccc4c3C(=O)N(C3CCC(=O)NC3=O)C4=O)CC1)C(C)(C)c1[nH]c3cc(C#N)ccc3c1C2=O (stereo not drawn) | % | 29.9 |
| CCc1cc2c(cc1N1CCN(CC(=O)NCCCCCCNc3cccc4c3C(=O)N(C3CCC(=O)NC3=O)C4=O)CC1)C(C)(C)c1[nH]c3cc(C#N)ccc3c1C2=O (stereo not drawn) | % | 69.8 |
| CCc1cc2c(cc1N1CCN(C(=O)CCCNc3cccc4c3C(=O)N(C3CCC(=O)NC3=O)C4=O)CC1)C(C)(C)c1[nH]c3cc(C#N)ccc3c1C2=O (stereo not drawn) | % | 85.9 |

Request the reported Activity associated with CCc1cc2c(cc1N1CCC(N3CCN(C(=O)CNc4cccc5c4C(=O)N(C4CCC(=O)NC4=O)C5=O)CC3)CC1)C(C)(C)c1[nH]c3cc(C#N)ccc3c1C2=O (stereo not drawn)
94.3

Request the reported Activity associated with CCc1cc2c(cc1N1CCN(C(=O)CCCCCNc3cccc4c3C(=O)N(C3CCC(=O)NC3=O)C4=O)CC1)C(C)(C)c1[nH]c3cc(C#N)ccc3c1C2=O (stereo not drawn)
71.6

Request the reported Activity associated with CCc1cc2c(cc1N1CCN(C(=O)CNc3cccc4c3C(=O)N(C3CCC(=O)NC3=O)C4=O)CC1)C(C)(C)c1[nH]c3cc(C#N)ccc3c1C2=O (stereo not drawn)
85
